tested on: HCT116.1 cells; assay: MTT cell proliferation assay; assay type: cell-based; conditions: 72-hour MTT
pIC50: −log10 of the molar value.
VALUE KIND: pIC50

Query: Bench note: what pIC50 did `Nc1ccc(/C=C/C(=O)NCc2cc3cc(-c4ccc(C(=O)N5CCC(F)(F)CC5)cn4)cc(C(F)(F)F)c3o2)cn1` show?
Response: < 5.00

====

test system: M24 cells; experiment: MTT cell proliferation assay; assay type: cell-based; details: Homo sapiens; M24 cells; 72-hour MTT; read-out: M24 MTT IC50
Consider the following molecules; for each one, report its pIC50.
One number for each entry, as −log10 of the molar value.

[
  {
    "CHEMICAL SMILES": "Nc1ccc(/C=C/C(=O)NCc2cc3cc(-c4ccc(S(=O)(=O)N5CCOCC5)cc4)cc(Cl)c3o2)cn1",
    "pIC50": 7.30
  }
]

Query: Bench note: what pIC50 did `Nc1ccc(/C=C/C(=O)NCc2cc3cc(-c4ccc(C(=O)N5CCOCC5)cc4)cc(C(F)(F)F)c3o2)cn1` show?
Response: 6.54

Data origin, for the record: patent US12331040B2
